Test: Plasma pharmacokinetics after single intragastric administration in rats
Assay type: in vivo, SD rat
Condition Details: both sexes, rat, plasma, po; all rats (♂ and ♀), single gavage 10 mg/kg, Mean ± SD
Quantity Kind: Tmax (h)
Give a bare numeral; the unit h is implied.

stdin: Please supply the value of reported Tmax for the item CC(C)(O)[C@@H]1CC[C@](C)([C@H]2[C@@H](O)C[C@@]3(C)[C@@H]4C[C@H](O)[C@H]5C(C)(C)C(F)(F)CC[C@@]56C[C@@]46CC[C@]23C)O1 [Compound 2]
stdout: 2.17

* * *

Test: Plasma pharmacokinetics after single intravenous injection in rats
Assay type: in vivo
Condition Details: both sexes, rat, all rats (♂ and ♀), intravenous 2 mg/kg, Mean ± SD
Quantity Kind: AUC0-t (ng·h/mL)
Give a bare numeral; the unit ng·h/mL is implied.

stdin: Please supply the value of reported AUC0-t for the item CC(C)(O)[C@@H]1CC[C@](C)([C@H]2[C@@H](O)C[C@@]3(C)[C@@H]4C[C@H](O)[C@H]5C(C)(C)C(F)(F)CC[C@@]56C[C@@]46CC[C@]23C)O1
stdout: 1590
